system: BDF1 mice, L1210/MTX-resistant leukemia ip, survival T/C; test: NCI In Vivo Anticancer Drug Screen. Data for tumor model L1210 Leukemia resistant to Methotrexate; NSC 740 (intraperitoneal) in B6D2F1 (BDF1) mice; details: endpoint: mean survival time; dose: 20.0 mg/kg/injection; schedule: Q01DX Z (ip); vehicle: carboxymethylcellulose (CMC); higher = longer survival
Inconclusive results and toxic doses are left out.
Hi there, I'd appreciate the recorded T/C for every entry that follows.

[[record]]
structure = "S=P(N1CCOCC1)(N1CC1)N1CC1"
recordedmetric = "T/C"
experimentalvalue = "95 % of control"

[[record]]
structure = "O=C(Nc1ccc(C2=NCCCN2)cc1)c1ccc(C(=O)Nc2ccc(C3=NCCCN3)cc2)cc1"
recordedmetric = "T/C"
experimentalvalue = "98 % of control"


Give T/C for all compounds that follow.
1. CN(C)C(=S)N=Nc1c(O)[nH]c2ccccc12
2. CCN(CC)CCNc1ccc(C)c2sc3ccccc3c(=O)c12

95 % of control
112 % of control

Cited source for all entries: PubChem BioAssay AID284
